molecular target: NAD-dependent protein deacetylase sirtuin-2 (Homo sapiens); assay: Inhibition of human recombinant SIRT2 using Fluor de Lys-SIRT as substrate incubated for 60 mins prior to substrate addition measured after 60 mins by fluorimetric analysis
Sequence (Q8IXJ6 whole entry): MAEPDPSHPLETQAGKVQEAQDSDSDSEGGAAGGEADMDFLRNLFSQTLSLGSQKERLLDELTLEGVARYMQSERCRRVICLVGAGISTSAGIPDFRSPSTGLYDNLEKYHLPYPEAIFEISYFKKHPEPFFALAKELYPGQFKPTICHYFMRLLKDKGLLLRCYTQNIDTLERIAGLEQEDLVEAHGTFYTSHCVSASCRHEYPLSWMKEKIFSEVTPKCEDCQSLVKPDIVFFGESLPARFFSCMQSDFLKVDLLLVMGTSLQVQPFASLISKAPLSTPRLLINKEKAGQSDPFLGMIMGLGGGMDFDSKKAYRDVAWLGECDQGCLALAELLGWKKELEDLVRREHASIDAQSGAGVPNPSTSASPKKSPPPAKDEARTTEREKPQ
Readings of IC50 for the listed molecules
measured_endpoint: IC50 (µM)

INSERT INTO results (molecule, operator_symbol, data_value) VALUES
  ('NC(=O)c1ccccc1Nc1cccc(C(=O)NCc2ccccc2)c1', '=', 39),
  ('NC(=O)c1ccccc1Nc1cccc(CCO)c1', '>', 100),
  ('NC(=O)c1ccccc1Nc1ccc(Oc2ccccc2)cc1', '>', 100),
  ('NC(=O)c1ccccc1Nc1ccccc1 [ANILINOBENZAMIDE]', '>', 100),
  ('NC(=O)c1ccccc1Nc1cccc(NC(=O)Cc2ccccc2)c1', '=', 74),
  ('NC(=O)c1ccccc1Nc1ccc(NC(=O)C2CCNCC2)cc1', '=', 53),
  ('Cc1cccc(Nc2ccccc2C(N)=O)c1', '=', 72),
  ('NC(=O)c1ccccc1Nc1ccc(NC(=O)c2ccncc2)cc1', '>', 100),
  ('COC(=O)c1cccc(Nc2ccccc2C(N)=O)c1', '>', 100),
  ('NC(=O)c1ccccc1Nc1ccc(OCc2ccccc2)cc1', '=', 33),
  ('NC(=O)c1ccccc1Nc1ccc(C(F)(F)F)cc1', '=', 69),
  ('NC(=O)c1ccccc1Nc1cccc(OCCCc2ccccc2)c1', '=', 4.3),
  ('NC(=O)c1ccccc1Nc1ccc(Cl)cc1', '>', 100),
  ('CC(=O)Nc1ccc(Nc2ccccc2C(N)=O)cc1', '=', 77),
  ('NC(=O)c1ccccc1Nc1cccc(OCC2CCCCC2)c1', '=', 24),
  ('NC(=O)c1ccccc1Nc1cccc(OCCc2ccccc2F)c1', '=', 2),
  ('CN(C(=O)c1ccccc1)c1cccc(Nc2ccccc2C(N)=O)c1', '>', 100),
  ('CN(Cc1ccccc1)C(=O)c1cccc(Nc2ccccc2C(N)=O)c1', '=', 40),
  ('COC(=O)/C=C/c1cccc(Nc2ccccc2C(N)=O)c1', '=', 32),
  ('CSc1ccc(Nc2ccccc2C(N)=O)cc1', '>', 100),
  ('NC(=O)c1ccccc1Nc1cccc(OCCc2ccccc2)c1', '=', 1),
  ('NC(=O)c1ccccc1Nc1ccc(NC(=O)c2cccnc2)cc1', '=', 38),
  ('NC(=O)c1ccccc1Nc1cccc(NC(=O)c2ccccc2)c1', '=', 57),
  ('NC(=O)c1ccccc1NCc1ccccc1', '>', 100),
  ('NC(=O)c1ccccc1Nc1ccc2ccccc2c1', '>', 100),
  ('NC(=O)c1ccccc1Nc1cccc(OCc2ccccc2)c1', '=', 54),
  ('NC(=O)c1ccccc1Nc1cccc(OCCc2ccccc2Br)c1', '=', 1.1),
  ('NC(=O)c1ccccc1Nc1ccc(NC(=O)C2CCCCC2)cc1', '=', 25),
  ('NC(=O)c1ccccc1Nc1ccc(/C=C/c2ccccc2)cc1', '>', 300),
  ('CC(C)C(=O)Nc1ccc(Nc2ccccc2C(N)=O)cc1', '>', 100),
  ('CN(c1ccccc1)c1ccccc1C(N)=O', '>', 100),
  ('NC(=O)c1ccccc1Nc1cccc(OCCc2ccc(Br)cc2)c1', '=', 1.2),
  ('NC(=O)c1ccccc1Nc1cccc(OCCc2ccc(C(F)(F)F)cc2)c1', '=', 1.4),
  ('NC(=O)c1ccccc1Nc1cccc(OCCc2ccccc2C(F)(F)F)c1', '=', 3.1),
  ('NC(=O)c1ccccc1Nc1cccc(OCCc2cccc(F)c2)c1', '=', 0.57),
  ('NC(=O)c1ccccc1Nc1cccc(/C=C/C(=O)O)c1', '>', 100),
  ('NC(=O)c1ccccc1Nc1cccc(OCCc2ccccc2Cl)c1', '=', 1.5),
  ('COc1ccc(Nc2ccccc2C(N)=O)cc1', '=', 80),
  ('O=C(O)c1ccccc1Nc1ccccc1', '>', 100),
  ('NC(=O)c1ccccc1Nc1ccc(NC(=O)c2ccccn2)cc1', '>', 100),
  ('NC(=O)c1ccccc1Oc1ccccc1', '>', 100),
  ('CN(C(=O)Cc1ccccc1)c1cccc(Nc2ccccc2C(N)=O)c1', '>', 100),
  ('CN(C(=O)c1ccccc1)c1ccc(Nc2ccccc2C(N)=O)cc1', '>', 300),
  ('NC(=O)c1ccccc1Nc1cccc(C(=O)O)c1', '>', 100),
  ('NC(=O)c1ccccc1Nc1cccc(CCC(=O)O)c1', '>', 100),
  ('NC(=O)c1ccccc1Nc1cccc(OCCc2cccc(C(F)(F)F)c2)c1', '=', 2.1),
  ('NC(=O)c1ccccc1Nc1cccc(C(=O)Nc2ccccc2)c1', '=', 83),
  ('NC(=O)c1ccccc1Nc1ccc(-c2ccccc2)cc1', '>', 100),
  ('CN(C(=O)c1cccc(Nc2ccccc2C(N)=O)c1)c1ccccc1', '>', 100),
  ('NC(=O)c1ccccc1Nc1cccc(Oc2ccccc2)c1', '=', 25);
